# test description: self-splicing fitness, log relative to wild type (ln ratio); higher = more splicing; Tetrahymena group I intron in knt gene, E. coli kanamycin selection, DiMSum; sequences stand for … in CUCUCU…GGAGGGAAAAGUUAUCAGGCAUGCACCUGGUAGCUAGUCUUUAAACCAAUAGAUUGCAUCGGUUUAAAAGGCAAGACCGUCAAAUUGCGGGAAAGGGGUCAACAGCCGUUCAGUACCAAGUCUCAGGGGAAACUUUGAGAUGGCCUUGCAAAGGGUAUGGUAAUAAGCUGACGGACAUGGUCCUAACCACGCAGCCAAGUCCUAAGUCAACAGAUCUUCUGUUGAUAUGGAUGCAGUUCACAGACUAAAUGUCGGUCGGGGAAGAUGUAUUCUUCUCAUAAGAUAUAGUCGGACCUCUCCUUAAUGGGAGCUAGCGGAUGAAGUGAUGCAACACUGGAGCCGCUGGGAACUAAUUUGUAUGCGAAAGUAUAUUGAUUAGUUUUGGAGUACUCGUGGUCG;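 note: selection with 25 µg/mL kanamycin versus none on LB agar overnight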
# test settings: 30 °C
# self-splicing fitness (ln) >= -3 gives Yes, anything below gives No

# sequence input, discrete label
rows = [
    ("ACCCAGCAAUAUUACGCUUA", "Yes"),
    ("CAAUAGCAAUAUUACGUCAC", "Yes"),
    ("GCCGAGCAAUAUUACGAGGU", "No"),
    ("UAGUAGCAAUAUUACGUCGA", "Yes"),
    ("AAAUAGCAAUAUUACGGCGG", "Yes"),
    ("CCAAAGCAAUAUUACGUAUU", "No"),
    ("AAGGAGCAAUAUUACGUUAG", "No"),
    ("GCAAAGCAAUAUUACGGUAG", "Yes"),
    ("GCUCAGCAAUAUUACGAGAU", "Yes"),
    ("AGCUAGCAAUAUUACGACUG", "Yes"),
    ("UUAAAGCAAUAUUACGCGGG", "Yes"),
    ("AGCGAGCAAUAUUACGCAGA", "Yes"),
    ("CAUUAGCAAUAUUACGACGC", "Yes"),
    ("UACUAGCAAUAUUACGUGUG", "Yes"),
    ("AUCCAGCAAUAUUACGCACU", "Yes"),
    ("CAAGAGCAAUAUUACGGUAA", "No"),
    ("UUCGAGCAAUAUUACGUCAA", "Yes"),
    ("UCUAAGCAAUAUUACGCUGU", "Yes"),
    ("AGGGAGCAAUAUUACGACGU", "Yes"),
    ("CCCUAGCAAUAUUACGCAUC", "No"),
    ("CAUAAGCAAUAUUACGCUCA", "Yes"),
    ("UACGAGCAAUAUUACGUCUC", "No"),
    ("CCGGAGCAAUAUUACGAAUG", "Yes"),
    ("UCUAAGCAAUAUUACGACCG", "Yes"),
    ("GCACAGCAAUAUUACGUGAA", "Yes"),
    ("CCAUAGCAAUAUUACGCUCA", "No"),
    ("AUUCAGCAAUAUUACGGAUG", "Yes"),
    ("UUGAAGCAAUAUUACGGAAA", "Yes"),
    ("UACAAGCAAUAUUACGGAUG", "Yes"),
    ("CCUCAGCAAUAUUACGUGAC", "No"),
    ("AGGAAGCAAUAUUACGGUAC", "No"),
    ("AAUCAGCAAUAUUACGUCCG", "Yes"),
    ("UGAUAGCAAUAUUACGUGUU", "No"),
    ("UUAGAGCAAUAUUACGUUGC", "Yes"),
    ("UGUAAGCAAUAUUACGUUCC", "No"),
    ("UCGAAGCAAUAUUACGUGAA", "Yes"),
    ("CCAGAGCAAUAUUACGCGUC", "No"),
    ("AGCAAGCAAUAUUACGCCUG", "No"),
    ("GACCAGCAAUAUUACGCAAC", "Yes"),
    ("AUGGAGCAAUAUUACGGGAC", "No"),
    ("GAGCAGCAAUAUUACGCUGU", "No"),
    ("CAGCAGCAAUAUUACGGUCC", "No"),
    ("UGCUAGCAAUAUUACGAUUG", "Yes"),
    ("ACUCAGCAAUAUUACGGGGA", "Yes"),
]

###

# test description: self-splicing fitness, log relative to wild type (ln ratio); higher = more splicing; Tetrahymena group I intron in knt gene, E. coli kanamycin selection, DiMSum; sequences stand for … in CUCUCU…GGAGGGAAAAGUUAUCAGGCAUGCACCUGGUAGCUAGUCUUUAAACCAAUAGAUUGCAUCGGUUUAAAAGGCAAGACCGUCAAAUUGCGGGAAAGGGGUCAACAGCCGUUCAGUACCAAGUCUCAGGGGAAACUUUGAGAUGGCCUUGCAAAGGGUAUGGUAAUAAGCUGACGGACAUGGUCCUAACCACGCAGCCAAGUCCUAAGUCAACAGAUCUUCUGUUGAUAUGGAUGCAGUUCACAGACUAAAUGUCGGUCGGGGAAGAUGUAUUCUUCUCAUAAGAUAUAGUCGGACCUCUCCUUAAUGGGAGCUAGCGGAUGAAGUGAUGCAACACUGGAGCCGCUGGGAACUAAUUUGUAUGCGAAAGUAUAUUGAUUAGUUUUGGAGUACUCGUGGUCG
# test settings: 37 °C
Listing of recorded self-splicing fitness (ln) by entry.

# sequence input, self-splicing fitness (ln)
measured = [
    ("AACUAGCAAUAUUACGCCUC", -0.975),
    ("GCAUAGCAAUAUUACGGCUU", -0.322),
    ("GAGUAGCAAUAUUACGUUAA", -2.33),
    ("AGGAAGCAAUAUUACGACUC", -0.886),
    ("CAGAAGCAAUAUUACGCGGU", -2.34),
    ("UGAUAGCAAUAUUACGUAGA", -0.984),
    ("UAACAGCAAUAUUACGACGU", -0.452),
    ("UCCCAGCAAUAUUACGAUGU", -1.2),
    ("UGAAAGCAAUAUUACGUGCA", 0.75),
    ("GCAUAGCAAUAUUACGUAGC", -2.15),
    ("UUUCAGCAAUAUUACGCUUC", -2.33),
    ("UUGAAGCAAUAUUACGAACA", -0.488),
    ("UCAGAGCAAUAUUACGGCUU", -2.19),
    ("AAAGAGCAAUAUUACGGAGG", -2.3),
    ("CGUAAGCAAUAUUACGGGAU", -3.29),
    ("CAGUAGCAAUAUUACGACCA", -0.375),
    ("GUUCAGCAAUAUUACGCUCU", 0.0537),
    ("CCUAAGCAAUAUUACGUGCA", -1.91),
    ("AAUAAGCAAUAUUACGAAAC", -2.17),
    ("GCUUAGCAAUAUUACGGGUC", -2.31),
    ("UAAUAGCAAUAUUACGCGUC", -2),
    ("GUAUAGCAAUAUUACGUUUC", -2.36),
    ("CAGGAGCAAUAUUACGUACG", 0.312),
    ("CAUGAGCAAUAUUACGCCAA", -2.53),
    ("GCAAAGCAAUAUUACGGUAG", -3.34),
    ("UGUCAGCAAUAUUACGUAGG", -0.275),
    ("GUACAGCAAUAUUACGAUCU", -0.527),
    ("GUCUAGCAAUAUUACGCUCC", 0.66),
    ("GCUUAGCAAUAUUACGGUGG", -2.38),
]

###

# test description: self-splicing fitness, log relative to wild type (ln ratio); higher = more splicing; Tetrahymena group I intron in knt gene, E. coli kanamycin selection, DiMSum; sequences stand for … in CUCUCU…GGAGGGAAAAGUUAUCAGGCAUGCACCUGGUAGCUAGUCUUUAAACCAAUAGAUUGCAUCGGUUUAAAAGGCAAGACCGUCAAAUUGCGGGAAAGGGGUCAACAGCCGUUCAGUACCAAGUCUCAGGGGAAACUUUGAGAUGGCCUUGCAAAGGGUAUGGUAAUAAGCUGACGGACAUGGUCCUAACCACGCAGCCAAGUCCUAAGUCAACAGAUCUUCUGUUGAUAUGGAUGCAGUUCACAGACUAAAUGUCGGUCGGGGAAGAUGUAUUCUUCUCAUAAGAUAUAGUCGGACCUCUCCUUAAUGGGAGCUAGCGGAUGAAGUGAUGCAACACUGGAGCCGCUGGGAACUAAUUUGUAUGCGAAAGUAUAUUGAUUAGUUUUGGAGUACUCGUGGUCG
# test settings: 30 °C
Hi all, reminder that labels come from self-splicing fitness (ln), split as bucket A (below -3), bucket B (-3 to below -1), bucket C (-1 or more)

# sequence input, discrete label
data = [
    ("AGGGAGCAAUAUUACGCUUA", "bucket A"),
    ("GCAAAGCAAUAUUACGUUCA", "bucket C"),
    ("UAUGAGCAAUAUUACGACGU", "bucket A"),
    ("GGCUAGCAAUAUUACGCGAG", "bucket A"),
    ("GGCCAGCAAUAUUACGUCAA", "bucket B"),
    ("UUCUAGCAAUAUUACGUUGG", "bucket B"),
    ("AUUAAGCAAUAUUACGUGUU", "bucket B"),
    ("UUGAAGCAAUAUUACGGGAG", "bucket B"),
    ("CCCGAGCAAUAUUACGUUGG", "bucket A"),
    ("ACGAAGCAAUAUUACGGGGA", "bucket B"),
    ("UUUUAGCAAUAUUACGAUCU", "bucket C"),
    ("CCUCAGCAAUAUUACGCACG", "bucket B"),
    ("CUAAAGCAAUAUUACGUAGA", "bucket A"),
    ("AAAUAGCAAUAUUACGGAAU", "bucket A"),
    ("AAGCAGCAAUAUUACGGGCG", "bucket C"),
    ("GUCAAGCAAUAUUACGCUCU", "bucket B"),
    ("CUUCAGCAAUAUUACGGGUA", "bucket A"),
    ("AAUGAGCAAUAUUACGCCAG", "bucket A"),
    ("AUUAAGCAAUAUUACGCCUC", "bucket B"),
    ("UGACAGCAAUAUUACGACCA", "bucket C"),
    ("UGAGAGCAAUAUUACGCCGU", "bucket A"),
    ("GAUGAGCAAUAUUACGACCC", "bucket C"),
    ("GCAGAGCAAUAUUACGUGGU", "bucket A"),
    ("AGCAAGCAAUAUUACGGUCG", "bucket C"),
    ("GGCAAGCAAUAUUACGAAGA", "bucket B"),
    ("AGGAAGCAAUAUUACGCACC", "bucket B"),
    ("GGAUAGCAAUAUUACGACCA", "bucket C"),
    ("UCGCAGCAAUAUUACGAUAA", "bucket B"),
    ("UAUGAGCAAUAUUACGCAGG", "bucket B"),
    ("CGAUAGCAAUAUUACGCGUG", "bucket B"),
    ("UCGCAGCAAUAUUACGUUAA", "bucket B"),
    ("CCAGAGCAAUAUUACGUGAU", "bucket A"),
    ("UAACAGCAAUAUUACGGCGG", "bucket C"),
    ("AUUGAGCAAUAUUACGCACU", "bucket C"),
    ("UGCGAGCAAUAUUACGCACA", "bucket B"),
    ("UGCCAGCAAUAUUACGCAAU", "bucket A"),
    ("UUCCAGCAAUAUUACGUCGG", "bucket A"),
    ("AGGAAGCAAUAUUACGGUUA", "bucket C"),
    ("ACACAGCAAUAUUACGUGAC", "bucket A"),
    ("UGCAAGCAAUAUUACGGAAU", "bucket B"),
    ("UGGCAGCAAUAUUACGAGGG", "bucket A"),
    ("AAUCAGCAAUAUUACGUGUU", "bucket C"),
    ("UACUAGCAAUAUUACGUCUA", "bucket C"),
    ("ACUCAGCAAUAUUACGGCUG", "bucket B"),
    ("UCCCAGCAAUAUUACGAAAG", "bucket A"),
    ("UGGCAGCAAUAUUACGAGCU", "bucket B"),
]
